Molecular target: human V1a receptor (Homo sapiens)
Construct: expressed in transfected cells; host or cells: HEK293 cells, transiently transfected; membranes prepared
Sequence (P37288 whole entry): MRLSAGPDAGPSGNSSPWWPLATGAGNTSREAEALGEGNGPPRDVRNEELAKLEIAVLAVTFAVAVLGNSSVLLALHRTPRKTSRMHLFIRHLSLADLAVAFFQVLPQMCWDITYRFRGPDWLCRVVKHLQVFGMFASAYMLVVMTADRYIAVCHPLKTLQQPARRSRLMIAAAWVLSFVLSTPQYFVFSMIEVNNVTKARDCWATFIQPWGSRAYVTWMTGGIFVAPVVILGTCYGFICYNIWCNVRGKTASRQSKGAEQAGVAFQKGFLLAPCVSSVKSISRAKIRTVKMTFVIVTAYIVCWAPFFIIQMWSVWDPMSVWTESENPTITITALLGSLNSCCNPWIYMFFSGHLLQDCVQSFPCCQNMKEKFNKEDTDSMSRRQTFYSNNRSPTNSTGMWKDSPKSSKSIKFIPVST
Test: human V1a receptor binding (3H-Vasopressin SPA, HEK293 membranes)
Settings: 3H-Vasopressin displacement, membranes of HEK293 cells transiently transfected with human V1a; Ki from IC50 by Cheng-Prussoff; read-out: pKi (hV1a) (converted)
Where a name gives a salt, the structure may show the parent alone.
Decide using Ki alone. Strictly below 0.009 µM: label 1. Equal to or above 0.009 µM: label 0.

A selection of reference data follows.
Lab log: compare recorded Ki with 0.009 µM; is it strictly lower for Cc1ccccc1[C@H]1CC[C@@H](c2nnc3n2-c2ccccc2CN(C)C3)CC1 [Example 6] ? label 0

Okay, and Clc1ccc2c(c1)CN(Cc1ccccn1)Cc1nnc([C@H]3CC[C@H](c4ccccc4)CC3)n1-2 [Example 31] ? label 1

Okay, and COc1ccc(F)cc1[C@H]1CC[C@H](c2nnc3n2-c2ccc(Cl)cc2CN(C)C3)CC1 [Example 24] ? label 1

Okay, and OCCN1Cc2cc(Cl)ccc2-n2c(nnc2[C@H]2CC[C@H](c3ccccc3)CC2)C1 [Example 32] ? label 1

Okay, and CN1Cc2cc(Cl)ccc2-n2c(nnc2[C@H]2CC[C@@H](c3ccc(F)cc3)CC2)C1 [Example 9] ? label 0

Okay, and Clc1ccc2c(c1)CNCc1nnc([C@H]3CC[C@H](c4cccc5ccccc54)CC3)n1-2 [Example 20, hydrochloride] ? label 0

Next:
Lab log: compare recorded Ki with 0.009 µM; is it strictly lower for CC(C)(C)OC(=O)N1Cc2cc(Cl)ccc2-n2c(nnc2[C@H]2CC[C@H](c3cccc(OC(F)(F)F)c3)CC2)C1 [Example 13] ? label 0

Okay, and Cc1ccccc1[C@H]1CC[C@@H](c2nnc3n2-c2ccc(Cl)cc2CN(C)C3)CC1 [Example 4] ? label 0

Okay, and CC(C)(C)OC(=O)N1Cc2cc(Cl)ccc2-n2c(nnc2[C@H]2CC[C@H](c3ccccc3)CC2)C1 [Example 1] ? label 1

Okay, and Fc1ccc([C@H]2CC[C@@H](c3nnc4n3-c3ccc(Cl)cc3CNC4)CC2)cc1 [Example 8, hydrochloride] ? label 0

Okay, and CN1Cc2cc(Cl)ccc2-n2c(nnc2[C@H]2CC[C@H](c3cccc(OC(F)(F)F)c3)CC2)C1 [Example 15] ? label 0

Okay, and COc1ccc(F)cc1[C@H]1CC[C@H](c2nnc3n2-c2ccc(Cl)cc2CN(C(=O)OC(C)(C)C)C3)CC1 [Example 22] ? label 0

Okay, and CN1Cc2cc(Cl)ccc2-n2c(nnc2[C@H]2CC[C@H](c3ccc(F)cc3)CC2)C1 [Example 12] ? label 1

* * *

Target: human V1a receptor (Homo sapiens)
Construct: expressed in transfected cells; host or cells: HEK293 cells, transiently transfected; membranes prepared
Test: human V1a receptor binding (3H-Vasopressin SPA, HEK293 membranes)
Settings: 3H-Vasopressin displacement, membranes of HEK293 cells transiently transfected with human V1a; Ki from IC50 by Cheng-Prussoff; read-out: pKi (hV1a) (converted)
Where a name gives a salt, the structure may show the parent alone.
Reported Ki values for a set of molecules
Give the number; nM is assumed, so skip it.

Value lookup for Ki; key = `Cc1ccccc1[C@H]1CC[C@H](c2nnc3n2-c2ccc(Cl)cc2CN(C)C3)CC1` 4.27

Okay, and COc1ccc(F)cc1[C@H]1CC[C@H](c2nnc3n2-c2ccc(Cl)cc2CNC3)CC1 [Example 23, hydrochloride] ? 42.7

Okay, and `CC(C)(C)OC(=O)N1Cc2cc(Cl)ccc2-n2c(nnc2[C@H]2CC[C@H](c3cccc(F)c3Cl)CC2)C1` ? 4.17

Next:
Value lookup for Ki; key = `CC(C)N1Cc2cc(Cl)ccc2-n2c(nnc2[C@H]2CC[C@H](c3ccccc3)CC2)C1` 1.91

Okay, and `CC(=O)N1Cc2cc(Cl)ccc2-n2c(nnc2[C@H]2CC[C@H](c3ccccc3)CC2)C1` ? 1.29

Okay, and Clc1ccc2c(c1)CNCc1nnc([C@H]3CC[C@H](c4ccccc4)CC3)n1-2 [Example 2, hydrochloride] ? 2.09

Okay, and `CN1Cc2cc(Cl)ccc2-n2c(nnc2[C@H]2CC[C@H](c3cccc(F)c3Cl)CC2)C1` ? 3.09

Okay, and Fc1ccc([C@H]2CC[C@H](c3nnc4n3-c3ccc(Cl)cc3CNC4)CC2)cc1 [Example 11, hydrochloride] ? 6.31

Okay, and `CN1Cc2cc(Cl)ccc2-n2c(nnc2[C@H]2CC[C@H](c3cccc4ccccc43)CC2)C1` ? 7.59

Okay, and N#Cc1cccc([C@H]2CC[C@H](c3nnc4n3-c3ccc(Cl)cc3CNC4)CC2)c1 [Example 26, hydrochloride] ? 32.4

Okay, and `CS(=O)(=O)N1Cc2cc(Cl)ccc2-n2c(nnc2[C@H]2CC[C@H](c3ccccc3)CC2)C1` ? 1.82

Okay, and `CC(C)(C)OC(=O)N1Cc2cc(Cl)ccc2-n2c(nnc2[C@H]2CC[C@H](c3ccc(F)cc3)CC2)C1` ? 4.68

Okay, and `CN1Cc2cc(Cl)ccc2-n2c(nnc2[C@H]2CC[C@H](c3cccc(C#N)c3)CC2)C1` ? 2.69

Okay, and FC(F)(F)Oc1cccc([C@H]2CC[C@H](c3nnc4n3-c3ccc(Cl)cc3CNC4)CC2)c1 [Example 14, hydrochloride] ? 57.5

Okay, and Fc1cccc([C@H]2CC[C@H](c3nnc4n3-c3ccc(Cl)cc3CNC4)CC2)c1Cl [Example 17, hydrochloride] ? 15.1
